Values from PubChem BioAssay AID1159580

Assay: chemical genetic growth profiling, strain panel (AID 1159580);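 note: tested at 20 µM; growth read once vehicle control cultures reached saturation at 30 °C; 1 = growth at the plate median or of vehicle wells; lower values mean less growth of the strain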
Details: S. cerevisiae deletion strains, growth OD, locus YIR030C, strain dcg1, hits give low values
Among all 5,500 compounds or so, about 2,000 (36%) were called active. Not shown: some 18% with an inconclusive outcome. The list shows a part of the results.
endpoint_name: normalized growth
Write the number on its own, no unit after it.

Some solved entries appear below for comparison.
> print(dat)
                                   molecule  reported.value
1  CC(=O)O[C@H]1CC[C@@]2(C)C(=CC(=O)C3C4CCC(C(C)CCCC(C)C)[C@@]4(C)CCC32)C1 (stereo not given in full)           0.989
2  N[C@@H](CCC(=O)N[C@@H](CS)C(=O)NCC(=O)O)C(=O)O           0.991
3  CC(=O)Oc1ccc(/C=C/c2cc(OC(C)=O)cc(OC(C)=O)c2)cc1            0.99

Value lookup for normalized growth; key = CCN1CCN(C(=O)NC(C(=O)N[C@@H]2C(=O)N3[C@@H]2SC(C)(C)[C@@H]3C(=O)O)c2ccccc2)C(=O)C1=O (stereo not given in full)
1.01

State the recorded normalized growth for this entry: C=C1c2c(Cl)ccc(O)c2C(O)=C2C(=O)[C@]3(O)C(O)=C(C(N)=O)C(=O)[C@@H](N(C)C)[C@@H]3[C@@H](O)[C@H]12
0.98

// query normalized growth value for entry NC(Cn1ccc(=O)c(O)c1)C(=O)O (stereo not given)
0.986
